test system: RXF 393 renal; test: NCI-60 one-dose screen, 48 h; conditions: 10 µM unless noted
Compounds without any hit were thinned out: in the full panel of roughly 83,000, 20% have a hit. Calls of active or inactive are those of the source. How the source made its calls: active means growth percent below 10; inactive means the rest.
Hi! Could you answer with just one of these? true for active, false for inactive

Query :: Can you look up the reported call for CCN1CCN(c2ccc(Nc3cc(-c4cccnc4Nc4c(Cl)c(OC)cc(OC)c4Cl)ncn3)cc2)CC1 for me?
Result :: false

Query :: Can you look up the reported call for O=C(Nc1ccc(N2CCCCC2)c(Cl)c1)c1ccc(Br)o1 for me?
Result :: false

Query :: Can you look up the reported call for O=c1[nH]nc(-c2ccc(Cl)cc2)cc1Cc1ccccc1 for me?
Result :: true

Query :: Can you look up the reported call for Cc1ccc(S(=O)(=O)N(CC[C@@H]2C[C@H]2c2cc3ccccc3o2)C(=O)NC2CCCCC2)cc1 for me?
Result :: false

Query :: Can you look up the reported call for O=C(Nc1ccccn1)[C@H](O)[C@@H](O)C(=O)N1CCOCC1 for me?
Result :: false

Query :: Can you look up the reported call for CCOc1ccc2nc(-c3cccc(OCC(=O)NC(C)C)c3)nc(Nc3ccc(-c4cn[nH]c4)cc3)c2c1 for me?
Result :: true

Query :: Can you look up the reported call for Cc1c(C(=O)O[C@H]2[C@@H]3[C@H](C)CC[C@H]3[C@]3(C)O[C@@]2(C2CCCCC2)C[C@H]3OC(=O)CO)ccc2ccccc12 for me?
Result :: true

Query :: Can you look up the reported call for CCOC(=O)c1ccc(NC(=O)CCCN(CC)CC)cc1 for me?
Result :: false

Query :: Can you look up the reported call for N[C@@H]1CCC[C@H]1NCCCCN1C(=O)c2cccc3cccc(c23)C1=O for me?
Result :: false

Query :: Can you look up the reported call for COc1cc(C(=O)/C=C/c2c(C(F)(F)F)nc3ccccn23)cc(OC)c1OC for me?
Result :: true

Query :: Can you look up the reported call for C=C(C)[C@@H]1CC[C@@]2(C(=O)O)CC[C@]3(C)C(CCC4[C@@]5(C)CCC(OS(=O)(=O)c6ccccc6)C(C)(C)C5CC[C@]43C)C12 (some centres undefined) for me?
Result :: false

Query :: Can you look up the reported call for Cc1[nH]c(-c2nc3ccccc3[nH]2)c(C)c1C(=O)NNc1ccc(Cl)cc1 for me?
Result :: false

Query :: Can you look up the reported call for Cc1ccccc1NC(=O)CN(C)C for me?
Result :: false

Query :: Can you look up the reported call for COc1ccc(/C=C2\C=C(c3ccccc3)N(CCc3ccccc3)C2=O)cc1OC for me?
Result :: true

* * *

system: A498 renal; assay: NCI-60 one-dose screen, 48 h (100 = growth as untreated, 0 = no growth, -100 = all killed); settings: 10 µM unless noted
The panel holds about 83,000 compounds, 20% with a hit somewhere; the sample as a whole holds those more often.
Please go through the items and note down their growth.
Write down the numeric answer in % and omit the unit.

Query :: Param readout = growth; param system = A498 renal; param query = C=CCO[C@H]1CO[C@H]2[C@@H]1OC[C@@H]2Oc1ccc(Nc2ccnc(Nc3ccc(O[C@H]4CO[C@H]5[C@@H]4OC[C@@H]5OCC=C)c(Cl)c3)n2)cc1Cl ; response: value
Result :: 95.6

Query :: Param readout = growth; param system = A498 renal; param query = CC(C)OC(=O)NNC(=O)c1ccncc1 ; response: value
Result :: 119

Query :: Param readout = growth; param system = A498 renal; param query = O=C1N/C(=N/O)S/C1=C/c1cn(-c2ccccc2)nc1-c1ccccc1 ; response: value
Result :: 85.6

Query :: Param readout = growth; param system = A498 renal; param query = N#Cc1c(N)n2c(nc1=Nc1ccc(Cl)cc1)sc1cc(Cl)ccc12 ; response: value
Result :: 91.1

Query :: Param readout = growth; param system = A498 renal; param query = Nc1ccn(C2OC(F)(CO)C(O)C2F)c(=O)n1 (stereo not given) ; response: value
Result :: 50.2
